- assayed-target: IDO1 (Homo sapiens (Human), UniProt P14902)
- Sequence (P14902 whole entry): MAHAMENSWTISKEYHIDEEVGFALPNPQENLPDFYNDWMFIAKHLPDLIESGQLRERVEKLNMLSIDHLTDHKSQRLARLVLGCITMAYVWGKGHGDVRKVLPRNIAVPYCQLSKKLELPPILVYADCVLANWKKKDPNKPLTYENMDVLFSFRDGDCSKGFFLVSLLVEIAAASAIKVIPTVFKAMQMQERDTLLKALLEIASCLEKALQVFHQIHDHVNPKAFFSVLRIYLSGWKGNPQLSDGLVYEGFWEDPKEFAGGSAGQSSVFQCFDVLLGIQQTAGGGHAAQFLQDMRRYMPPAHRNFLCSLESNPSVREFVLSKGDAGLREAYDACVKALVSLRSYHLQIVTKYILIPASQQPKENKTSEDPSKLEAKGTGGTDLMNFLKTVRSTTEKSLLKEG
- protocol-details: IDO1 Enzyme Assay
- experimental-conditions: read-out: IDO1 Enzyme Assay, IC50; HIS-tagged recombinant IDO1, 40 nM
pIC50: −log10 of the molar value.
Note to self: values exactly at 7 are criterion met. So pIC50 at or above 7 is criterion met, below is criterion not met.

# structure-as-smiles, group-label
data = [
    ("COC(=O)[C@@H](N)CSc1nonc1/C(=N/O)Nc1ccc(F)c(Br)c1", "criterion not met"),
    ("CN1C[C@@H](CSc2nonc2/C(=N/O)Nc2ccc(F)c(Br)c2)NC1=O", "criterion met"),
    ("CC(C)(O)CNC(=O)CSc1nonc1/C(=N/O)Nc1ccc(F)c(Br)c1", "criterion met"),
    ("CNC(=O)N1CC(Sc2nonc2/C(=N/O)Nc2ccc(F)c(Br)c2)C1", "criterion met"),
    ("CC(=O)NCCSc1nonc1/C(=N/O)Nc1cccc(Br)c1", "criterion met"),
    ("COCCNS(=O)(=O)NCCSc1nonc1/C(=N/O)Nc1ccc(F)c(Br)c1", "criterion met"),
    ("CN(C)CCSc1nsnc1/C(=N/O)Nc1ccc(F)c(Br)c1", "criterion not met"),
]

====

- assayed-target: UniProt P14902
- protocol-details: IDO1 Enzyme Assay
- experimental-conditions: read-out: IDO1 Enzyme Assay, IC50; HIS-tagged recombinant IDO1, 40 nM
pIC50: −log10 of the molar value.
metric-name: pIC50

# structure-as-smiles, assayed-target, metric-name, assay-value
rows = [
    ("O=c1c(NCCSc2nsnc2/C(=N/O)Nc2ccc(F)c(Br)c2)c(NCC2CC2)c1=O", "UniProt P14902", "pIC50", 6.78),
    ("C[C@H](CO)NC(=O)CSc1nonc1/C(=N/O)Nc1ccc(F)c(Br)c1", "UniProt P14902", "pIC50", 7.35),
    ("OC[C@H](O)CSc1nonc1/C(=N/O)Nc1ccc(F)c(C(F)(F)F)c1", "UniProt P14902", "pIC50", 6.90),
    ("O=S1(=O)CCC(Sc2nonc2/C(=N/O)Nc2ccc(F)c(Br)c2)CC1", "UniProt P14902", "pIC50", 6.99),
]

====

- assayed-target: IDO1 (Homo sapiens (Human))
- protocol-details: IDO1 Cellular Assay in Hela Cells Stimulated with IFNγ
- Type: cell-based
- experimental-conditions: Hela cells stimulated with IFNγ 100 ng/mL; read-out: IDO1 HELA Cell Assay, IC50
pIC50: −log10 of the molar value.

# compound, pIC50
records = [
    ("ON=C(Nc1ccc(F)c(Br)c1)c1nonc1SCc1nccs1", 6.95),
    ("O/N=C(\\Nc1ccc(F)c(Br)c1)c1nonc1SC1CNC1", 6.99),
    ("Cn1c(CSc2nonc2/C(=N/O)Nc2ccc(F)c(Br)c2)n[nH]c1=O", 7.24),
    ("N#Cc1cc(N/C(=N\\O)c2nonc2SC[C@H]2CCC(=O)N2)ccc1F", 6.52),
    ("OC[C@@H](O)CSc1nonc1/C(=N/O)Nc1ccc(F)c(C(F)F)c1", 6.96),
    ("O=C(CSc1nonc1/C(=N/O)Nc1ccc(F)c(Br)c1)NCC(O)CN1CCOCC1 (single isomer, unassigned) [Example 206]", 6.96),
    ("O=P(O)(O)CCSc1nonc1/C(=N/O)Nc1ccc(F)c(Br)c1", 5.10),
    ("CC(C)(O)C(O)CSc1nonc1/C(=N/O)Nc1ccc(F)c(Cl)c1 (single isomer, unassigned) [Example 189]", 7.18),
    ("CNC(=O)N1CC(Sc2nonc2/C(=N/O)Nc2ccc(F)c(Br)c2)C1", 7.37),
    ("CC(O)C(CO)NC(=O)CSc1nonc1/C(=N/O)Nc1ccc(F)c(Br)c1 (stereo not drawn)", 6.90),
    ("OC[C@@H](O)CSc1nonc1/C(=N/O)Nc1ccc(F)c(C(F)(F)F)c1", 6.80),
    ("O=C(CSc1nonc1/C(=N/O)Nc1ccc(F)c(Br)c1)NC(CO)CO", 7.17),
    ("O=C(CSc1nonc1C(=NO)Nc1ccc(F)c(Br)c1)NC1CCC1", 6.83),
    ("NS(=O)(=O)NCCOc1nonc1/C(=N/O)Nc1ccc(F)c(Br)c1", 6.95),
    ("NS(=O)(=O)c1ccc(CCSc2nonc2/C(=N/O)Nc2ccc(F)c(Br)c2)cc1", 7.04),
    ("CCc1cccc(N/C(=N\\O)c2nonc2SCCNC(C)=O)c1", 7.28),
    ("CCCCNC(=O)NCCSc1nonc1C(=NO)Nc1ccc(F)c(Br)c1", 6.66),
    ("O=S1(=O)CCC(Sc2nonc2/C(=N/O)Nc2ccc(F)c(Br)c2)CC1", 7.39),
]
